Hey, just so you know, these numbers are from the supplement of paper PMC9170038.

Test system: MS2 coat protein
PROTOCOL DESCRIPTION: apparent KD of MS2 coat protein; designed switch direction (-1 OFF switch, 1 ON switch): -1; higher = weaker reporter binding
PROTOCOL CONDITIONS: input ligand: FMN 200 uM
Threshold rule: apparent KD of MS2 coat protein greater than or equal to 400 nM is t; below that, f.

{"SEQUENCE RECORD": "GGGUGACAGUUAGGAUAUCUUAGCACGCCGUAGAGAGAAGGAACAUGAGGAUCACCCAUGUUGUAGUGCCUCCGGCACUGCUAG [Zaquata] (Eterna round: R96, puzzle: Exclusion NG 1)", "QUALITATIVE LABEL": "f"}
{"SEQUENCE RECORD": "ACAUGUCAUCGAGGAUAUUGGACACAUGAGGAUCACCCAUGUACUCGGAGGCUCUACCAUGAGUUCGAGAAGGCGAUGUACAUG [Ex NG2 #76] (Eterna round: R96, puzzle: Exclusion NG 2)", "QUALITATIVE LABEL": "t"}
{"SEQUENCE RECORD": "CUCUUGAGUCAGGAUAUCGAGAGGCUAAUAAAACGAGAAGGGACUACAUGAGGAUCACCCAUGUGAUCGCAAAA [Geonge] (Eterna round: R97, puzzle: Exclusion 6)", "QUALITATIVE LABEL": "t"}
{"SEQUENCE RECORD": "AAUAACAUGUUGAUCAAAUACAUGAGGAUCACCCAUGUAUGCUUUUUGUUCGAUAAGAUCAACUAAUAAUAAUAAUA [StovNew/1-C] (Eterna round: R97, puzzle: Sensor, turn-off variant 1)", "QUALITATIVE LABEL": "f"}

Prompt: I'd appreciate it if you could say whether AAUAUGUGAGGAUAUUAGUUGUACGUCAAUAGACGUAUAAGUGAGAAGGCACAUGAGGAUCACCCAUGUUCCUG [Omei Ex4 Mod of Mat's R95 mod of Omei v3] (Eterna round: R97, puzzle: Exclusion 4) has apparent KD of MS2 coat protein at least equal to 400 nM.
Response: f

###

What apparent KD of MS2 coat protein was measured for each of the following?
System: MS2 coat protein
PROTOCOL DESCRIPTION: apparent KD of MS2 coat protein; higher = weaker reporter binding
PROTOCOL CONDITIONS: Eterna round: R107; input ligand: theophylline 2 mM
Numbers only, in nM.

{"SEQUENCE RECORD": "UUCACGGGCACGGCCGCCACUAACCAACAUGAGGAUCACCCAUGUGUAUUGGACGACCUCUUUGCUAGGACCGGGUGUAUGGUUC [theeternabot_exclusion_MS2_Trp_B_15]", "MEASURED ATTRIBUTE": "apparent KD of MS2 coat protein", "VALUE OBSERVED": 32.6}
{"SEQUENCE RECORD": "AACGUGAACGUGGUAUACCCGUGUGCCGAAGGAGCGCCCGAAAGGGCAGGUAGGUCGCGGACGACAUGAGGAUCACCCAUGUUUG", "MEASURED ATTRIBUTE": "apparent KD of MS2 coat protein", "VALUE OBSERVED": 87.5}
{"SEQUENCE RECORD": "UUCAAAGGGAACGGUGCUGGUGACAGAGAUACCAGAGUAGUAAUACUCCCUUGGCAGCUCAGAACAUGAGGAUCACCCAUGUAAU [Exclusion Theophylline A GF22]", "MEASURED ATTRIBUTE": "apparent KD of MS2 coat protein", "VALUE OBSERVED": 59.2}
{"SEQUENCE RECORD": "GGCACCAGGAGAAGGAGCGUGAAGACAUGAGGAUCACCCAUGUAGAGGCCCGGACCGGGUUCGCAGGUAGGUCGCUCCUGGUGCC [#1 Same State - Arginine B Attempt #15 (HarryS)]", "MEASURED ATTRIBUTE": "apparent KD of MS2 coat protein", "VALUE OBSERVED": 23}
{"SEQUENCE RECORD": "AGACAUGAGGAUCACCCAUGUAGUACGGAUACCAGAUCCAGAUGUAUCCCUUGGCAGCUGUGGUACAGCGUUGCAUCGCUCCUAG [Exclusion - Theophylline A (Freestyle 19)]", "MEASURED ATTRIBUTE": "apparent KD of MS2 coat protein", "VALUE OBSERVED": 20.1}

Now turn to the next sequence.
apparent KD of MS2 coat protein reading for ACAUGAGGAUCACCCAUGUGUGUAAGUCCUCGAGGACCGGUACGGCCGCCACUCGAUUGAGUGUAAGUUGAAUGUAACAUUCAAC [whbob_SS_trypto A_2s10] : 18.1

###

Tested on: MS2 coat protein
PROTOCOL DESCRIPTION: apparent KD of MS2 coat protein; designed switch direction (-1 OFF switch, 1 ON switch): -1; higher = weaker reporter binding
PROTOCOL CONDITIONS: Eterna round: R95; input ligand: none
What apparent KD of MS2 coat protein was measured for each of the following?
Numbers only, in nM.

{"SEQUENCE RECORD": "GGUACUAUCACCUGAGUGGUAGUGCCACAAGCUUGUGAUACAUGAGGAUCACCCAUGUCCUCAUUUGCUCGUCUUAU [JL-sv3-2.28 JL mod] (puzzle: Sensor v3, turn-off variant 2)", "MEASURED ATTRIBUTE": "apparent KD of MS2 coat protein", "UNITS TEXT": "nM", "VALUE OBSERVED": 343}

For every item below, please supply its apparent KD of MS2 coat protein.
1. AGUAGAUCUACGCUUGCGUGGAUCUGCAAUGCAGGUGUUACAUGAGGAUCACCCAUGUCCUCGUUUGCUCGUCUUAU [JL turnoff v2 99.12] (puzzle: Sensor v3, turn-off variant 2)
2. CGGUACUGAGGAUAUACAUGAGGAUCACCCAUGUGUACCAGCUAGCGUACUGGCAUUAGUAGAAGGCGGUGCUG [JL-ex3-3.19 Brourd mod] (puzzle: Exclusion 3)
3. GAAAAGUGAGGAUAUGGUAAAAAAAAAAGAAAAAAAAAACUCCAGAAGGCACAUGAGGAUCACCCAUGUAAAAG [salish99_ex4_r3_003] (puzzle: Exclusion 4)
4. GCAAGCGACUAGGCUCGUCUUAUAUUGAAAAGAUUGAAAACAUGAGGAUCACCCAUGUAUGUGGGAAAGUUGAAGUG [JR_SV3TOV2_Sub010] (puzzle: Sensor v3, turn-off variant 2)
5. AGUAACUAUCACGAAAGUGAUAGUUACAACAAGUGAUAAACAUGAGGAUCACCCAUGUCCUCAUUUGUUCGUCUUAU [Sensor 3 - 14] (puzzle: Sensor v3, turn-off variant 2)
6. AAACGUAGACAGGAUAUCUGCGCCCUUGGUUAAAGAGAAGGGUCUACAUGAGGAUCACCCAUGUGGUGUAACUC [Dibedididi] (puzzle: Exclusion 6)
7. AUAUGCAAGUAAAGAUCCUACAUGAGGAUCACCCAUGUGCUCGUCUUAUAAAGUACUAUCACGAAAGUGAUAGUACA [Mat - Sensor v3 - turn-off var 1 - Eli Mod - D84] (puzzle: Sensor v3, turn-off variant 1)
8. CUGGUCCGAGGAUAUAUUAUGUGAUACAUGAGGAUCACCCAUGUUAUAUGAUGGAUAUUAAUAGAAGGCGGACUAG [Mat - Exclusion 5 - JL mod - D73] (puzzle: Exclusion 5)

Response:
1. 222
2. 13.7
3. 58.6
4. 332
5. 225
6. 23.6
7. 170
8. 83.9

apparent KD of MS2 coat protein reading for CCGCAAAAGGAGGAUAUCGUAUCGGAUACGAUACGAGAAGGCCUAACAUGAGGAUCACCCAUGUGUCCUAGCGG [Fiskers Ex 6 - 36] (puzzle: Exclusion 6) : 14.5

###

Test system: MS2 coat protein
PROTOCOL DESCRIPTION: apparent KD of MS2 coat protein; higher = weaker reporter binding
PROTOCOL CONDITIONS: Eterna round: R107; input ligand: arginine 13.2 mM
MEASURED ATTRIBUTE: apparent KD of MS2 coat protein (nM)
Numbers only, in nM.

{"SEQUENCE RECORD": "CGCAACCCACAUGAGGAUCACCCAUGUGAAGGAGCGCCGAAUAAGGCAGGUAGGUCGCGCAUGAAUAAAUCAUGUAGGAAGCGAA [XArg-A 6 V1&2]", "apparent KD of MS2 coat protein / nM": 20.6}

For every item below, please supply its apparent KD of MS2 coat protein.
1. ACUGACUUUACGGCCGCCACUCAUUGGCACGUGUCAUGUCAACAUGAGGAUCACCCAUGUAUGAUGAGGACCGGGUAAGGGCUGC [theeternabot_exclusion_MS2_Trp_B_2]
2. GUCACACAGUAGGAUACCAGCGUGGCUUAUCCCUGAUCGUACAUGAGGAUCACCCAUGUCCGCCCUUGGCAGCCUCCUGCUCGGA [theeternabot_exclusion_MS2_Theo_B_33]
3. GCGGUGGUCGGAAGGAGCGACAUGAGGAUCACCCAUGUCUCCCGUUAUGGGAGUUCCUUAGGUCAGGUAGGUCGCCGACUGCCGC [#1 Exclusion - Arginine B Attempt #21 (Inspired by Omei)]
4. ACGAUAGCACACGAGGAUCACCCGUGUGAUACCAGCCUGGAAACAGGCCCUUGGCAGCACACAAUAAAAGUGUAACUAUCGAAUA [TheoAX4 #MicroSwitchBubble #AlternativeMS2]

Response:
1: 8.71; 2: 12.4; 3: 105; 4: 40.2
